- EXPERIMENTAL DETAILS: Cytotoxicity against mouse RAW264.7 cells assessed as cell viability at 3.78 uM by MTT assay
- Format: cell-based
- CONDITION CONTEXT: read-out: Activity
MEASURED PROPERTY: viability at 3.78 µM (%)
Give the value in % but do not write % after it.

Requested field: viability at 3.78 µM. Item: CC(=N)NCc1cccc(CN)c1 [1400W] 82

---

- Test system: RAW264.7
- EXPERIMENTAL DETAILS: Inhibition of LPS-induced nitric oxide production in mouse RAW264.7 cells
- Format: functional, cell-based
MEASURED PROPERTY: IC50
Please state the value followed by its unit.

| MOLECULE | TEST TARGET | MEASURED VALUE |
| --- | --- | --- |
| COc1cc(OC)c(C(=O)/C=C/c2ccc3c(c2)OCO3)c(OC)c1 | RAW264.7 | 13.1 µM |

Continue with the molecule presented below.
Name the reported IC50 value associated with the molecule CC(=N)NCc1cccc(CN)c1 [1400W] 3.78 µM
